// reported IC50 per item
- STUDY TARGET: Ustilago maydis acetyl CoA carboxylase (ACCase) (Mycosarcoma maydis (Ustilago maydis))
- PROTOCOL: ACCase enzymatic assay (coupled PK/LDH, NADH OD340)
- Type: biochemical
- CONDITIONS USED: Table 1A; values marked a are a result of two or more experiments; read-out: ACCase Inhibitory Activity IC50
Answer format: numeric, nM implied, no suffix.

Solved cases below.
N#Cc1c(SC(C(=O)O)c2ccccc2)nc2c(c1-c1ccccc1)CCCC2 (centres unmarked) [Formula Ia-xvii]; 906
COc1ccc(-c2c(C#N)c(SC(C(=O)O)c3ccccc3)nc3c2CCCC3)cc1 (centres unmarked) [Formula Ia-xxvi]; 560

Provide measured IC50 value, entry: CCc1nc(SC(C(=O)O)c2ccccc2)c(C#N)c2c1CCCC2 (centres unmarked) [Formula Ia-xv]
10200

Supply measured IC50 of COc1ccc(-c2cc(SC(C(=O)O)c3ccccc3)nc(-c3cccs3)c2)cc1 (centres unmarked) [Formula Ia-xix] in your reply.
9060

Report measured IC50; entry is Cc1ccc(-c2cc(-c3cccs3)nc(SC(C(=O)O)c3ccccc3)c2C#N)cc1 (centres unmarked) [Formula Ia-xxi]
353

Using known records, supply IC50 for N#Cc1c(-c2ccco2)cc(-c2ccco2)nc1SC(C(=O)O)c1ccccc1 (centres unmarked) [Formula Ia-xxv]
4040

Output IC50 of COc1ccc(-c2cc(C(F)(F)F)c(C#N)c(SC(C(=O)O)c3ccccc3)n2)cc1OC (centres unmarked) [Formula Ia-ix]
1600

Specify measured IC50 for COc1ccc(-c2cc(-c3cccs3)nc(SC(C(=O)O)c3ccccc3)c2C#N)cc1 (centres unmarked) [Formula Ia-v] .
119

* * *

IC50 overview
- STUDY TARGET: Ustilago maydis acetyl CoA carboxylase (ACCase) (Mycosarcoma maydis (Ustilago maydis))
- PROTOCOL: ACCase enzymatic assay (coupled PK/LDH, NADH OD340)
- Type: biochemical
- CONDITIONS USED: Table 1A; values marked a are a result of two or more experiments; read-out: ACCase Inhibitory Activity IC50
- Method: Ustilago maydis acetyl CoA carboxylase (ACCase) was cloned, expressed, and purified as described (Weatherly et al, Biochem. J., 2004) and the test compounds were tested in a 96-well plate format. Primary in vitro screening consisted of obtaining dose response data at 100, 33, 10, and 1 μM inhibitor. […] A slope of the kinetic curve was determined by using the 2 to 7 minute data which was then calculated as percent inhibition relative to the no inhibitor control. […]
Note: unit µM is implicit; provide only the numeric part.

Give the reported value of IC50 for this record: N#Cc1c(SC(C(=O)O)c2ccccc2)nc(-c2cccs2)c2c1CCCC2 (stereo not shown) [Formula Ia-vii]
3.81

Give IC50 for the following compound: N#Cc1c(-c2ccco2)cc(-c2cccs2)nc1SC(CO)c1ccccc1 (stereo not shown) [Formula IIb-iv]
2.18

Return reported IC50. Input compound: N#Cc1c(-c2ccccc2)cc(-c2ccccc2)nc1SC(C(=O)O)c1ccccc1 (stereo not shown) [Formula Ia-xii]
0.266

Supply reported IC50 belonging to this compound: CCC(Sc1nc(-c2cccs2)cc(-c2ccc(OC)cc2)c1C#N)C(=O)O (stereo not shown) [Formula Ia-xxix]
0.113

* * *

- System: Botrytis cinerea
- PROTOCOL: Fungal growth inhibition assay, Botrytis cinerea
- Type: cell-based
- CONDITIONS USED: 10 ppm, 48 hours, read-out: B. cinerea % growth inhibition at 48 hours
- Text: Spores were isolated from previously sub-cultured plates of Botrytis cinerea, Phytophthora capsici, Fusarium moniliforme, Fusarium viguliforme, Collectotrichum graminicola, and Diplodia maydis. […] After spore isolation, pathogen spores were counted on a hemocytometer to calculate the spores/ml. […] In a 96-well plate the spore solution, chemistries, and controls were combined to make the final solution concentrations mentioned above. […] Plate readings were repeated at 24 and 48 hrs. […]
Each entry below carries its reported inhibition at 10 ppm.
Give your result in % as a bare value.

Solved entries:
N#Cc1c(-c2ccccc2)cc(-c2ccccc2)nc1SC(C(=O)O)c1ccccc1 (stereo not shown); 6
COc1ccc(-c2cc(-c3cccs3)nc(SC(C(=O)O)c3ccccc3)c2C#N)cc1 (racemic); 8
N#Cc1c(C(F)(F)F)cc(-c2ccc(Br)cc2)nc1SC(C(=O)O)c1ccccc1 (stereo not shown); 12

Give reported inhibition at 10 ppm value for COc1ccc(-c2cc(-c3ccc[s+]3[O-])nc(OC(C(=O)O)c3ccccc3)c2C#N)cc1 (stereo not shown)
27

* * *

- STUDY TARGET: Ustilago maydis acetyl CoA carboxylase (ACCase) (Mycosarcoma maydis (Ustilago maydis))
- PROTOCOL: ACCase enzymatic assay (coupled PK/LDH, NADH OD340)
- Assay type: biochemical
- CONDITIONS USED: Table 1A; values marked a are a result of two or more experiments; read-out: ACCase Inhibitory Activity IC50
Parameter IC50: see the listing below.
Numeric only. Scale: nM

Solved entries (count: 5):
N#Cc1c(SC(C(=O)O)c2ccccc2)nc2c(c1-c1cccs1)CCCC2 (centres unmarked); 274
CN1CCCc2c1nc(SC(C(=O)O)c1ccccc1)c(C#N)c2-c1cccs1 (centres unmarked); 3550
N#Cc1c(-c2cccs2)cc(-c2ccco2)nc1SC(C(=O)O)c1ccccc1 (centres unmarked); 958
COc1ccc(-c2cc(-c3ccco3)nc(SC(C(=O)O)c3ccccc3)c2C#N)cc1 (centres unmarked); 345
N#Cc1c(SC(C(N)=O)c2ccccc2)nc2c(c1-c1cccs1)CCCC2 (centres unmarked); 712

Supply measured IC50 of N#Cc1c(C(F)(F)F)cc(-c2ccco2)nc1SC(C(=O)O)c1ccccc1 (centres unmarked) in your reply.
5430

Fill in reported IC50 for this entry: N#Cc1c(C(F)(F)F)cc(-c2ccc(Br)cc2)nc1SC(C(=O)O)c1ccccc1 (centres unmarked)
1950

* * *

- Test system: Collectotrichum graminicola
- PROTOCOL: Fungal growth inhibition assay, Collectotrichum graminicola
- Type: cell-based
- CONDITIONS USED: Colletotrichum graminicola; 50 ppm, 48 hours; read-out: C. graminicola % growth inhibition at 48 hours
ASSAY READOUT: inhibition at 50 ppm (%)
Unit % implied. Number only.

Illustrative cases are given below, each with its answer.
COc1ccc(-c2cc(-c3cccs3)nc(SC(C(=O)O)c3ccccc3)c2C#N)cc1 (racemic) [Formula Ia-xiv]; 79
N#Cc1c(-c2ccccc2)cc(-c2ccccc2)nc1SC(C(=O)O)c1ccccc1 (stereo not shown); 80
N#Cc1c(SC(C(=O)O)c2ccccc2)nc(-c2cccs2)c2c1CCCC2 (stereo not shown); 71

For the next question, use this compound.
Recall the reported inhibition at 50 ppm of N#Cc1c(-c2cccs2)cc(-c2cccs2)nc1SC(C(=O)O)c1ccccc1 (racemic) when tested on Collectotrichum graminicola.
91

* * *

- System: Phytophthora capsici
- PROTOCOL: Fungal growth inhibition assay, Phytophthora capsici
- Format: cell-based
- CONDITIONS USED: 10 ppm, 48 hours, read-out: P. capsici % growth inhibition at 48 hours
Quick list: inhibition at 10 ppm per entry.
Give your result in % as a bare value.

Worked examples, 3 compounds total:
N#Cc1c(SC(C(=O)O)c2ccccc2)nc(-c2cccs2)c2c1CCCC2 (stereo not shown) [Formula Ia-vii]; 9
N#Cc1c(-c2ccccc2)cc(-c2ccccc2)nc1SC(C(=O)O)c1ccccc1 (stereo not shown) [Formula Ia-xii]; 36
COc1ccc(-c2cc(C(F)(F)F)c(C#N)c(SC(C(=O)O)c3ccccc3)n2)cc1OC (stereo not shown) [Formula Ia-ix]; 39

Next compound, inhibition at 10 ppm to be filled in.
Quote inhibition at 10 ppm with test system Phytophthora capsici for N#Cc1c(-c2ccccc2)cc(-c2cccs2)nc1SC(C(=O)O)c1ccccc1 (stereo not shown) [Formula Ia-iv]
11

* * *

- System: Collectotrichum graminicola
- PROTOCOL: Fungal growth inhibition assay, Collectotrichum graminicola
- Assay type: cell-based
- CONDITIONS USED: Colletotrichum graminicola; 50 ppm, 48 hours; read-out: C. graminicola % growth inhibition at 48 hours
Form field: inhibition at 50 ppm (one value per entry).
Only the number, expressed in %, is required.

N#Cc1c(-c2ccc(Cl)cc2)cc(-c2cccs2)nc1SC(C(=O)O)c1ccccc1 (stereo not shown); 92
COc1ccc(-c2cc(C(F)(F)F)c(C#N)c(SC(C(=O)O)c3ccccc3)n2)cc1OC (stereo not shown); 72
N#Cc1c(-c2ccccc2)cc(-c2cccs2)nc1SC(C(=O)O)c1ccccc1 (stereo not shown); 76

Return reported inhibition at 50 ppm. Input molecule: COc1ccc(-c2cc(-c3cccs3)nc(SC(C(=O)O)c3ccccc3)c2C#N)cc1 (stereo not shown) [Formula Ia-v]
79

* * *

- STUDY TARGET: Ustilago maydis acetyl CoA carboxylase (ACCase) (Mycosarcoma maydis (Ustilago maydis), UniProt A0A0D1DYD5)
- Sequence (A0A0D1DYD5 1-2185): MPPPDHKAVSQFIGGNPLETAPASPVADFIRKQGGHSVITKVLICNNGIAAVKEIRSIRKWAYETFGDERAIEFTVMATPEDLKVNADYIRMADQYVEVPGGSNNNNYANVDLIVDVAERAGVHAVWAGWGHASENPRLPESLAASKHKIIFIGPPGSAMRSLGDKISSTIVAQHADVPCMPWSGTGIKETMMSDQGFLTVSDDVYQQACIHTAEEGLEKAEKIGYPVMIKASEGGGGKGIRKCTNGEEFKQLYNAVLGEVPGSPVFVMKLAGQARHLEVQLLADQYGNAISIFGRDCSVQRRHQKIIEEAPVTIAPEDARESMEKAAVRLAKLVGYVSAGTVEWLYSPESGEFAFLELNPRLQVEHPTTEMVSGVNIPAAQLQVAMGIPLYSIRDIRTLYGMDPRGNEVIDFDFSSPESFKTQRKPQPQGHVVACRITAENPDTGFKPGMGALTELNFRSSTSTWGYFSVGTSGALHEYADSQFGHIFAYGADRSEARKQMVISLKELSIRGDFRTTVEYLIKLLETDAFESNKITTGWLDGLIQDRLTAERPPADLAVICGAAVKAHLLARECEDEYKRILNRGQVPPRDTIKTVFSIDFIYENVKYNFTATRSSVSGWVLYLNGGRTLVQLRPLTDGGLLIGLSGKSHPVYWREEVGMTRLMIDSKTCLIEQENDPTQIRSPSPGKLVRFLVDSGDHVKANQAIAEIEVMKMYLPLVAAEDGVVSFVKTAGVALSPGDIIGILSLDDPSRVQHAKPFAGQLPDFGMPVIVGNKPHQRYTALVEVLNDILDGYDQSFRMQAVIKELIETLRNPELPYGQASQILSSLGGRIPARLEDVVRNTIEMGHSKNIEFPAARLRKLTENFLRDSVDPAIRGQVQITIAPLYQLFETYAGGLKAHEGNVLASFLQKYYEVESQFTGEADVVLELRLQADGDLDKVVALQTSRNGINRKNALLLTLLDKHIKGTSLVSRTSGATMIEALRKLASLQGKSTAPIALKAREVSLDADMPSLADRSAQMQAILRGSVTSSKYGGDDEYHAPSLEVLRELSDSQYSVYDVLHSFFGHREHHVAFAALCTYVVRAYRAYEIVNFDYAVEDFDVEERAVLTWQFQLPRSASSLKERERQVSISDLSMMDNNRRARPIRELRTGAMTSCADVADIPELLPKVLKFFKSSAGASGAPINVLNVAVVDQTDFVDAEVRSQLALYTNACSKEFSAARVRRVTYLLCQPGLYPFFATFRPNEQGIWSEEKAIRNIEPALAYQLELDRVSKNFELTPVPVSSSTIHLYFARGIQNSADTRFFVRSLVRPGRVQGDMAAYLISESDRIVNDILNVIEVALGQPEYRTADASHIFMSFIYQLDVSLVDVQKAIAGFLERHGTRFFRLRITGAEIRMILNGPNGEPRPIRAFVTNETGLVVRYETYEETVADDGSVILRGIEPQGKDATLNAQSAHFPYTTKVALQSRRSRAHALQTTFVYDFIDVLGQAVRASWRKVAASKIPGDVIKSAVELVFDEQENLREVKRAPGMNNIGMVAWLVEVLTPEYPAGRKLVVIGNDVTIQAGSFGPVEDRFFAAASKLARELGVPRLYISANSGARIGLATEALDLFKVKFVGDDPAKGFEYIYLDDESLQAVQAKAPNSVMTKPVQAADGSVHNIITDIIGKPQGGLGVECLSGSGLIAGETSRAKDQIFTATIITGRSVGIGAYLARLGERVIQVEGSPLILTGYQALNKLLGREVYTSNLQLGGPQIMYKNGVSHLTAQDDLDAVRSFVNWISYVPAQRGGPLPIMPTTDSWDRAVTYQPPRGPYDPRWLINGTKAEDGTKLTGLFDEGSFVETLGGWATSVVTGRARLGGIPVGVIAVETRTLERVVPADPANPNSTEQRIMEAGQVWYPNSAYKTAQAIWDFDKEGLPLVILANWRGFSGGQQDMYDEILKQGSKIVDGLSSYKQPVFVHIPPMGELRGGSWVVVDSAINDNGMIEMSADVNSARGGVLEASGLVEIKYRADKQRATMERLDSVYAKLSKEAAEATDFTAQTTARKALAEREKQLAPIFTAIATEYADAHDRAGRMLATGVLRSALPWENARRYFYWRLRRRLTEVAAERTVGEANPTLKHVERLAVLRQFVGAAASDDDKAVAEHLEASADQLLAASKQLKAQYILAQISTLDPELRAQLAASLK
- PROTOCOL: ACCase enzymatic assay (coupled PK/LDH, NADH OD340)
- Type: biochemical
- CONDITIONS USED: Table 1B; racemate vs single enantiomers; read-out: ACCase Inhibitory Activity of Racemic Mixtures and Single Enantiomers IC50
Below: a set of entries, each annotated with reported IC50.
Answer with a number only, understood to be in µM.

N#Cc1c(-c2cccs2)cc(-c2cccs2)nc1SC(C(=O)O)c1ccccc1 (single isomer, unassigned) [Formula Ia-iii-e1]; 0.547
N#Cc1c(C(F)(F)F)cc(-c2cccs2)nc1SC(C(=O)O)c1ccccc1 (racemic) [Formula Ia-ii]; 2.02
N#Cc1c(-c2cccs2)cc(-c2cccs2)nc1SC(C(=O)O)c1ccccc1 (single isomer, unassigned) [Formula Ia-iii-e2]; 2.39

Item N#Cc1c(C(F)(F)F)cc(-c2cccs2)nc1SC(C(=O)O)c1ccccc1 (single isomer, unassigned) [Formula Ia-ii-e1] : provide IC50
12.9

# credit: patent US10548313B2
